These data points were gathered from patent US20190300590A1.

Study target: Rat IL-23R_huFC (rat)
Assay name: rat ELISA vs IL-23
pIC50: −log10 of the molar value. *1 amine or outer side, *2 acyl side, *3 side chain or, on linkers, in order; H or OH if unused. Bridges are numbered along the chain shown (N, C = ends). Primed or numbered codes have the meaning given here. [ ]: non-standard residue; d: D form. Phe(4-OMe)(3) = O-methyl-L-tyrosine (4-methoxy-L-phenylalanine), COc1ccc(C[C@H](N[*:1])C(=O)[*:2])cc1; 2Nal = N[C@@H](Cc1ccc2ccccc2c1)C(=O)O; AEF = NCCOc1ccc(C[C@H](N)C(=O)O)cc1; αMeK = C[C@](N)(CCCCN)C(=O)O; Abu = CC[C@H](N)C(=O)O; Aib = CC(C)(N)C(=O)O
# maps each entry to its pIC50

Below are worked cases with known answers.
Ac-[Abu]QTWQC[AEF][2Nal][αMeK]DNG-NH2 (thioether 1-6) [Ac-Cyclo-[[Abu]-QTWQC]-[Phe[4-(2-aminoethoxy)]]-[2-Nal][α-MeLys]-DNG-NH2] ... 7.60 to 8.00
Ac-[Abu]QTWQC[AEF][2Nal][Aib]QNG-NH2 (thioether 1-6) [Ac-Cyclo-[[Abu]-QTWQC]-[Phe[4-(2-aminoethoxy)]]-[2-Nal]-[Aib]-QNG-NH2] ... 7.60 to 8.00

Please turn your attention to the following entry.
Quick one: pIC50 for Ac-[Abu]QTWQC[Phe(4-OMe)(3)][2Nal][αMeK]K(Ac)NAE-NH2 (thioether 1-6) [Ac-Cyclo-[[Abu]-QTWQC]-[Phe(4-OMe)]-[2-Nal][α-MeLys]-[Lys(Ac)]-NAE-NH2] ?
7.60 to 8.00
